Data provenance: patent US11369591B2

- Assay info: Steroid solubility studies in dissolution media (PBS, pH 6.3), Example 10
- Format: physicochemical
- Study conditions: pH 6.3, aqueous buffer, thermodynamic from solid
Metric: solubility at 68 h (µg/mL)

P: CCCC1O[C@@H]2C[C@H]3[C@@H]4CCC5=CC(=O)C=C[C@]5(C)[C@H]4[C@@H](O)C[C@]3(C)[C@]2(C(=O)CO)O1 (stereo partly drawn) [Budesonide]
Q: CC1(C)O[C@@H]2C[C@H]3[C@@H]4CCC5=CC(=O)C=C[C@]5(C)[C@@]4(F)[C@@H](O)C[C@]3(C)[C@]2(C(=O)CO)O1 [Triamcinolone Acetonide]
R: CC1(C)O[C@@H]2C[C@H]3[C@@H]4C[C@H](F)C5=CC(=O)C=C[C@]5(C)[C@H]4[C@@H](O)C[C@]3(C)[C@]2(C(=O)CO)O1 [Flunisolide, Anhydrous, USP, Flunisolide]
Q. Using measured solubility at 68 h, arrange the molecules from above in descending sequence. Please, when replying, give the labels in the order that was requested.
A. R, P, Q
(R: 90 µg/mL, P: 30 µg/mL, Q: 20 µg/mL)
